All figures here come from the supplement of paper PMC12764529.

test: folding stability dG unfold from chymotrypsin proteolysis; higher = more stable
Property Label: folding stability dG unfold (kcal/mol)

| Sequence Content | Property Label | Units Symbol | Value Measured |
| --- | --- | --- | --- |
| SAGGSAGGSAGEIENPSLLSQIVPRKVKVTTEIRKLPNGSYETVTTVTYGSTTTTTTSSGATSAGGSAGGSA [r18_335_JUSTAS] | folding stability dG unfold | kcal/mol | -0.256 |
| SAGGMVRVTVVPTPGRAGEPVTLVIEHPDGTRTVPLPPDTSPEEARAAAERLAEEEGLDVAEVVFEASAGGS [r16_753_JUSTAS] | folding stability dG unfold | kcal/mol | 0.428 |
| SATKTITIELPVDVPVEVLKEFFEALGFTEMEFYETEDPRTLVVRFTVPGDPVTVIVIVRPLPVPPDEPLSA [r9_1090_TrMRF] | folding stability dG unfold | kcal/mol | 3.57 |
| SSPEEDLEEIEITVTNPNDPRPSFVKVTRSPEGYEATFTLPDGKTVKIPPELGLEEIKKLPSSFTITILPSA [r9_781_JUSTAS] | folding stability dG unfold | kcal/mol | 0.83 |

====

assay: folding stability dG unfold from trypsin proteolysis; higher = more stable

| Sequence Content | Units Symbol | folding stability dG unfold |
| --- | --- | --- |
| SAGGSAGGSMKITVEKDENGNYRVTVTLTVNGKEIKLTVTVPKNTTPEEVKKKAEELAKELLKSAGGSAGGS [r12_69_TrROS_Hall] | kcal/mol | 4.39 |
| SMYKLSVYRNGQPVPEEEALERVKRIEEELGREVDPEELARLLAAEPDTVVTVTKYAEPGKPIGTLTYTRSA [r9_1045_JUSTAS] | kcal/mol | 1.32 |
| SAGGRYYFVRIEIYNPNNGRPFDIMIPFPGMPAEQVKEQVKEIADELAKQHGMDVKVKVEIQPLPPDSAGGS [r8_185_TrROS] | kcal/mol | 1.73 |
| SAGGSAGGSFRIPKGDPNMKIRIIFQWPNGQPMPMEYTVTPDGTFKINIPGMPPNRIESIEIWSAGGSAGGS [r12_477_TrROS] | kcal/mol | 1.98 |
| SAGGKVKIVKIEIEEVDGKLKIRIVVEVDTPEDLEALKKAGVKKLKVEKRRLPNGRLLVVIEVEVEVKSAGG [r13_506_TrROS_Hall] | kcal/mol | 2.46 |
| SAGGSAGGSAGSVLILVSREDLEALLEAGAEIVEVSDDYVLIRVEVPEVEVLDENGKRLDSAGGSAGGSAGG [r11_828_TrROS_Hall] | kcal/mol | 1.9 |
| SAGGSAGGSAGKPKKKPPKPKIETKTITVTITNKDGSKTTVTATIVRNKDTNELFIRISSSAGGSAGGSAGG [r11_1024_TrROS_Hall] | kcal/mol | 3.07 |

====

The entries below come with measured folding stability dG unfold values attached.
experiment: folding stability dG unfold from trypsin proteolysis; higher = more stable
Property Label: folding stability dG unfold (kcal/mol)

| Sequence Content | Value Measured |
| --- | --- |
| SAGGSPVLKVEVFELEEDKLLLKIYFPKEEAGLTPEQKEALAKAIQELFPNTKAFTTDEELYIVVDSAGGSA [r2_256_TrMRF] | 2.06 |
| SAGGDPAPLEVDIEMDPDNGRIRIEIRAGGSKVIYEYEIPLDGYEFKVKIIVVDGKIVIEIEFEMPDSAGGS [r16_631_TrROS] | 4.27 |
| SAGGALANLSPEEIAALLESQGYEVTILEVEEKPGERIVKIRVTVKREDGTVESVEEIELTLPAPDKLSAGG [r13_566_JUSTAS] | 3.7 |
| SAGGSAGGSAAPVPPDRTLTVYRDPNTDKYTIRTPDGSVTVSPITPEELRAAGAPVVYLGPESAGGSAGGSA [r18_125_JUSTAS] | -1 |
| SAGGSAGGSAGSPKGKPPKPTIEYEPITFEIPNPDGQGFELEISIIRMPGNGQEFIGISFSAGGSAGGSAGG [r11_1024_TrROS] | 0.611 |
| SGMIKVSVEEKELKDGTKLYTITVEHPDPEVAKETAEKIVKEKFPKNYKVETKLTESGKVIAPVIVPKKKSA [r9_646_JUSTAS] | 0.379 |
| SAGWIMINSPEDAERIVEELRKLLPPGYKIDVEPMPNGSVMIEFENPEEGREIKIHYDRRNGMYWIEPVSAG [r5_358_TrROS] | 2.58 |
| SAGGSAGGSAGETVTLTLTVTVTRTYYDAETGEEVEQETETRTLTLTMSKEELERLLKELSAGGSAGGSAGG [r17_283_TrROS_Hall] | 3.28 |
| SAGGSAGGSAGMLIELTVETSVTTVSTPDATFTVVTLKEPGKPETLGTVVYDPATGSPALSAGGSAGGSAGG [r11_645_JUSTAS] | 0.615 |
| SAGGMVTITVSIEEGKGYAVITITIDDETLTIKIPIPNMTEEDIKAKAEEIAKELAEKYGIEEIKLESAGGS [r16_249_JUSTAS] | 3.08 |
| SAGGSEFIPVVAEFPEDVTPEDVARAVRELERAGFVVERVEVERFPDPDGRERYRVRVVLRRPEELSAGGSA [r2_442_TrMRF] | 3.53 |
| SAGAMLTLELTVEADSPEEAIERAKEIAKELIKKEYPELSKNTKIEKITAEPTPGPEVKVTITIKIDPGSAG [r5_320_JUSTAS] | 4.42 |
| SRRLITIEITVTLPGNPEVTLSKTLKLPTEDVEEAIEKAKKEFKEEFGIPEDVPVKIEVTVSTSDGDPSLQS [r1_149_JUSTAS] | 2.53 |
| SAGGSAGGSKKKYTVEELLKKLKPGDIALVKINGKWREVSVEELKKLPPGAEVEVEVFKLKPPSAGGSAGGS [r12_501_TrROS_Hall] | 2.84 |
